test: Self-aggregation of the compound in PBS assessed as derived light scattering count rate at 10 uM at pH 7.4 (reference value: 15.5 +/- 0.4 kilocount/sec); type: physicochemical; details: buffer, pH 7.4, 10 µM
Kindly return 1 (yes) if reported Activity is no lower than 100 kC/sec; return 0 (no) if it is lower.

structure_smiles_string=CCCCCCCCn1c2c(c3cc(-c4ccc(S(C)(=O)=O)cc4)ccc31)CNCC2 group_label="0 (no)"
structure_smiles_string=CCCCCCCCn1c2c(c3cc(-c4cnc(N)nc4)ccc31)CN(C(C)C)CC2 group_label="1 (yes)"
structure_smiles_string=CCCCCCCCn1c2c(c3cc(-c4ccc(S(C)(=O)=O)cc4)ccc31)CN(C(N)=O)CC2 group_label="0 (no)"
structure_smiles_string=CCCCCCCCn1c2c(c3cc(-c4cccc(C)c4)ccc31)CN(C(C)C)CC2 group_label="1 (yes)"
structure_smiles_string=CCCCCCCCn1c2c(c3cc(-c4cnc(N)nc4)ccc31)CN(C)CC2 group_label="0 (no)"
structure_smiles_string=CCCCCCCCn1c2c(c3cc(-c4cccc(C)c4)ccc31)CN(C(N)=O)CC2 group_label="1 (yes)"
structure_smiles_string=CCCCCCCCn1c2c(c3cc(-c4cccc(C)c4)ccc31)CN(C)CC2 group_label="1 (yes)"
structure_smiles_string=CCCCCCCCn1c2c(c3cc(-c4cccc(C)c4)ccc31)CN(Cc1ccccc1)CC2 group_label="1 (yes)"

[in] State whether the measured Activity reaches 100 kC/sec, counting equality as reaching it, for `CCCCCCCCn1c2c(c3cc(-c4ccc(S(C)(=O)=O)cc4)ccc31)CN(C)CC2`
[out] 1 (yes)

[in] State whether the measured Activity reaches 100 kC/sec, counting equality as reaching it, for `CCCCCCCCn1c2c(c3cc(-c4cnc(N)nc4)ccc31)CNCC2`
[out] 1 (yes)

Each recorded value in this set is attributed to ChEMBL document CHEMBL3407343.
